Entry source: patent US7189720B2

Molecular target: human Y5 receptor (Homo sapiens, UniProt Q15761)
Construct: expressed in transfected cells; host or cells: mouse fibroblast LM(tk-) cells, e.g. L-hY5-7 (ATCC CRL-11995)
Sequence (Q15761 whole entry): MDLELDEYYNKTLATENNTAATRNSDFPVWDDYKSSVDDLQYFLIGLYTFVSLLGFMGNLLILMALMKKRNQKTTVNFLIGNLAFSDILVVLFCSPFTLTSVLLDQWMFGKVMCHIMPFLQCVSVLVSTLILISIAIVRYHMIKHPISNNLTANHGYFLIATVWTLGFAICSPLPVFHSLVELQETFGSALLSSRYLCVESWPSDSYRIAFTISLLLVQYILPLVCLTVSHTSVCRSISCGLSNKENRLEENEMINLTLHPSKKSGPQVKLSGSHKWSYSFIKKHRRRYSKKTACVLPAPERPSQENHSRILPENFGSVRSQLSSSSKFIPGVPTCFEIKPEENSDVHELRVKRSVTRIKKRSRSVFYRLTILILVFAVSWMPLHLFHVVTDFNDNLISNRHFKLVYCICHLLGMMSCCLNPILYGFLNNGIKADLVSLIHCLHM
Assay: Radioligand binding to membranes, cloned human Y5 receptor
Settings: Table 6; read-out: Ki, nM hNPY-5
measured.endpoint: Ki (nM)

Use these answered entries as a reference point.
O=S(=O)(NCCCCCCNc1nc2c(s1)CCSc1ccccc1-2)c1c(Cl)nc2sccn12 ... 6.6
O=S(=O)(Cc1ccccc1)NC[C@H]1CC[C@H](Nc2nc3c(s2)CCSc2ccccc2-3)CC1 ... 8.9
Cn1cnc(S(=O)(=O)NC[C@H]2CC[C@H](Nc3nc4c(s3)CCSc3ccccc3-4)CC2)c1 ... 33

a = O=S(=O)(NC[C@H]1CC[C@H](Nc2nc3c(s2)CCSc2ccccc2-3)CC1)c1cccs1
b = O=C(NCCCCNc1nc2c(s1)CCSc1ccccc1-2)c1cccc2ccccc12
input: I'm curious, which of these has a smaller Ki number: a or b ? Answer format: the label of the selected item.
output: a
(a: 5.1 nM, b: 123 nM)

a = O=S(=O)(NCCCCCCNc1nc2c(s1)CCSc1ccccc1-2)c1ccc(F)cc1F
b = O=S(=O)(NC[C@H]1CC[C@H](Nc2nc3c(s2)CCSc2ccccc2-3)CC1)c1ccc(-c2ccccn2)s1
input: Could you kindly indicate whether a or b has the higher Ki value? Answer format: the label of the selected item.
output: b
